Exercise: state measured AC50 for each of the compounds provided.

Entry Cn1cccc1C(=O)N1CCC2(CC1)CN(C(c1ccccc1)c1ccccc1)C2 , UniProt P05177 data, AC50 value: 31.6 µM (inconclusive)

Entry CCNC(=O)c1ccc(-n2nc(C)cc2-c2ccccc2)cc1 , UniProt P05177 data, AC50 value: 14.1 µM (inconclusive)

Entry COc1ccccc1-c1cc(C(=O)Nc2cc(C)n(Cc3ccc(Cl)cc3)n2)no1 , UniProt P05177 data, AC50 value: 0.794 µM (inconclusive)

Entry CC(C)Cn1c(SCC(=O)c2c(N)n(C)c(=O)n(C)c2=O)nc2ccccc21 , UniProt P05177 data, AC50 value: 25.1 µM (inconclusive)

Entry CS(=O)(=O)Nc1cccc(-c2ccc3ncnc(NC4CCNCC4)c3c2)c1 , UniProt P05177 data, AC50 value: 31.6 µM (inconclusive)

Entry O=C(Cc1ccccc1)N/N=C/C=C/c1cccc([N+](=O)[O-])c1 , UniProt P05177 data, AC50 value: 15.8 µM (inconclusive)

Entry O=C(CN1CCN(Cc2ccccc2)CC1)N1CCCc2c1c(=O)oc1ccc(O)cc21 , UniProt P05177 data, AC50 value: 6.31 µM (inconclusive)

Entry Cc1cc(CSc2ccccc2)ccc1NC(=O)COc1ccccc1 , UniProt P05177 data, AC50 value: 7.08 µM (inconclusive)

Entry C[C@@](N)(C(=O)O)c1ccc(P(=O)(O)O)cc1 , UniProt P05177 data, AC50 value: 39.8 µM (inconclusive)

Entry COCCn1c(C(=O)N2CCCC2)cc2c1C[C@H]1CN(C(=O)c3ccccc3)[C@@](Cc3ccc(F)cc3)(C(=O)OC)[C@@H]21 , UniProt P05177 data, AC50 value: 31.6 µM (inconclusive)

Entry Cc1cc(C(=O)NNC(=S)NC(C)c2ccccc2)c2ccccc2n1 (configuration not stated) , UniProt P05177 data, AC50 value: 31.6 µM (inconclusive)

Entry CC1(C)CCC(C)(C)c2c1ccc(O)c2Cc1c(O)ccc2c1C(C)(C)CCC2(C)C , UniProt P05177 data, AC50 value: 5.01 µM (inconclusive)

Entry COc1cccc(OC)c1C(=O)Nc1cc(C)on1 , UniProt P05177 data, AC50 value: 22.4 µM (inconclusive)

Entry O=C1c2ccccc2C(=O)N1CCSC(=S)N1CCOCC1 , UniProt P05177 data, AC50 value: 3.16 µM (inconclusive)

Entry O=[N+]([O-])c1ccc2ncccc2c1CCc1c([N+](=O)[O-])ccc2ncccc12 , UniProt P05177 data, AC50 value: 3.16 µM (inconclusive)

Entry Cc1nnc(SCC(=O)NCC2CCCCC2)n(N)c1=O , UniProt P05177 data, AC50 value: 25.1 µM (inconclusive)

Entry O=C(OCC1CC(c2ccccc2)=NO1)c1ccc(Cl)cc1 (configuration not stated) , UniProt P05177 data, AC50 value: 2.82 µM (inconclusive)

Entry N=C(N)SCCCN , UniProt P05177 data, AC50 value: 6.31 µM (inconclusive)

Entry Cc1cc[n+](CC(=O)Nc2cc(C(F)(F)F)ccc2Cl)cc1 , UniProt P05177 data, AC50 value: 15.8 µM (inconclusive)

Entry CCOc1ccc(N(C(C)C(=O)N/N=C(\C)c2cccc(NC(=O)c3ccccc3)c2)S(C)(=O)=O)cc1 (configuration not stated) , UniProt P05177 data, AC50 value: 14.1 µM (inconclusive)

Entry CN1CCN(c2ccc([N+](=O)[O-])c3[nH]o[n+](=O)c23)CC1 , UniProt P05177 data, AC50 value: 0.398 µM (inconclusive)

Entry COc1ccc(CCNC(=O)Cn2c(=O)oc3ccccc32)cc1OC , UniProt P05177 data, AC50 value: 12.6 µM (inconclusive)
